IC50 values by entry
biological target: KRAS G12C (Homo sapiens, UniProt P01116+P62937, G12C); test: Disruption of BRAF RBD interaction with Ras (FRET / MOA assay, with Cyclophilin A); assay type: biochemical; details: KRAS G12C FRET data, IC50
Sequence (P01116 1-169 isoform P01116-2 G12C): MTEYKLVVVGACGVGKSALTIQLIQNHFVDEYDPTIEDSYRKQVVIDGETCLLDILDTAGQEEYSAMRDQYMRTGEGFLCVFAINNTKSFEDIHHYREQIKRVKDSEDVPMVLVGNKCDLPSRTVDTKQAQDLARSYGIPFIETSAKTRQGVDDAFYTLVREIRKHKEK
Sequence (P62937 whole entry): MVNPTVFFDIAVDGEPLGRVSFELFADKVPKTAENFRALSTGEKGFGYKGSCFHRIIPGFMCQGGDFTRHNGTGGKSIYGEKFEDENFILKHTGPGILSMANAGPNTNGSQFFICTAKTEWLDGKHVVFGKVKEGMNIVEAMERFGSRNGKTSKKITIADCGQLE

Before answering, review these 8 worked examples.
Ask | Entry CCn1c(-c2cccnc2[C@H](C)OC)c2c3cc(ccc31)-c1csc(n1)C[C@H](NC(=O)[C@H](C(C)C)N(C)C(=O)N1CCOC[C@@H]1CN(C)C)C(=O)N1CCC[C@H](N1)C(=O)OCC(C)(C)C2 : reported IC50 = ?
Reply | 1000 to 10000 nM

Ask | Param item: CCn1c(-c2cnccc2COC)c2c3cc(ccc31)-c1cc(O)cc(c1)C[C@H](NC(=O)[C@H](C(C)C)N(C)C(=O)OC1CCOC1)C(=O)N1CCC[C@H](N1)C(=O)OCC(C)(C)C2 (stereo partly drawn)
Reply | 100 to 1000 nM

Ask | Param item: CCn1c(-c2cccnc2[C@H](C)OC)c2c3cc(ccc31)-c1csc(n1)C[C@H](NC(=O)[C@H](C(C)C)N(C)C(=O)N1CCC[C@H](CN(C)C)C1)C(=O)N1CCC[C@H](N1)C(=O)OCC(C)(C)C2 (atropisomer, axis not shown)
Reply | 10 to 100 nM

Ask | Param item: CCn1c(-c2cnccc2COC)c2c3cc(ccc31)-c1cc(O)cc(c1)C[C@H](NC(=O)[C@H](C(C)C)N(C)C(=O)[C@H]1CCN(C(=O)N(C)C)C1)C(=O)N1CCC[C@H](N1)C(=O)OCC(C)(C)C2
Reply | 100 to 1000 nM

Ask | Param item: CCn1c(-c2cnccc2COC)c2c3cc(ccc31)-c1cc(O)cc(c1)C[C@H](NC(=O)[C@H](C(C)C)N(C)C(=O)[C@H]1CCCO1)C(=O)N1CCC[C@H](N1)C(=O)OCC(C)(C)C2
Reply | 100 to 1000 nM

Ask | Param item: CCn1c(-c2cnccc2COC)c2c3cc(ccc31)-c1cc(O)cc(c1)C[C@H](NC(=O)[C@H](C(C)C)N(C)C(=O)[C@H]1CCN(S(C)(=O)=O)C1)C(=O)N1CCC[C@H](N1)C(=O)OCC(C)(C)C2
Reply | 100 to 1000 nM

Ask | Param item: CCn1c(-c2cnccc2COC)c2c3cc(ccc31)-c1cc(O)cc(c1)C[C@H](NC(=O)[C@H](C(C)C)N(C)C(=O)[C@H]1CCN(S(=O)(=O)N3CC(O)C3)C1)C(=O)N1CCC[C@H](N1)C(=O)OCC(C)(C)C2
Reply | 100 to 1000 nM

Ask | Param item: CCn1c(-c2cccnc2[C@H](C)OC)c2c3cc(ccc31)-c1cc(O)cc(c1)C[C@H](NC(=O)[C@H](C(C)C)N(C)C(=O)C1CCN3CCOCC13)C(=O)N1CCC[C@H](N1)C(=O)OCC(C)(C)C2 (stereo partly drawn)
Reply | 100 to 1000 nM

***
Ask | Entry CCn1c(-c2cccnc2[C@H](C)OC)c2c3cc(ccc31)-c1csc(n1)C[C@H](NC(=O)[C@H](C(C)C)N(C)C(=O)OC)C(=O)N1CCC[C@H](N1)C(=O)OCC(C)(C)C2 : reported IC50 = ?
Reply | 100 to 1000 nM

Data provenance: patent US20230233569A1
